Tested on: RPMI-8226
Assay: NCI tumour cell line growth inhibition, 48 h
Active and inactive are the calls of the source. Rule as the data show it: active = GI50 up to about 1.1 µM and inactive = higher. Starred links: 1 amine or outer side, 2 acyl side, 3 side chain; linkers in the order of their positions; H or OH if unused. Non-standard residues stand in square brackets, D forms with d. Residues, ends and D or L forms follow the SMILES beside them. *: point of attachment. X34 = CC(=O)N(C)SCC(N[*:1])C(=O)[*:2]; Cbz = O=C(OCc1ccccc1)*; Bn = c1ccc(C*)cc1; For = O=C*
Readout kind: GI50

| Compound | GI50 |
| --- | --- |
| CCCCCCCCCCCCCC(=O)N(CCCCCCCCC)CC(O)C(O)C(OC1OC(CO)C(O)C(O)C1O)C(O)CO (configuration not stated) | 29.9 µM (inactive) |
| CC(C)C1CNC(=O)C2(/C=N/C(C(C)C)CNC(=O)C3(/C=N/1)CCCO3)CCCO2 (configuration not stated) | > 10 µM (inactive) |

Form field: reported GI50 of "Cc1cc2ccc(N)nc2nc1O"
> 100 µM (inactive)

And what about the compound CC(=O)N(C)SCC(NC(=O)C(Cc1ccccc1)NC(=O)OCc1ccccc1)C(=O)NC(Cc1ccccc1)C(=O)NC(Cc1cn(C=O)c2ccccc12)C(=O)NC(CCCCNC(=O)OCc1ccccc1)C(=O)NC(C(=O)NC(CSN(C)C(C)=O)C(=O)NC(C(N)=O)C(C)OCc1ccccc1)C(C)OCc1ccccc1 (configuration not stated) (Cbz-F[X34]FW(For)K(Cbz)T(Bn)[X34]T(Bn)-NH2; configuration not given here) ?
> 100 µM (inactive)

And what about the compound COC(=O)[C@H](C)[C@H]1CC[C@@](C)([C@H]2CC3C(C)(C)[C@H]4CCC(C)=C[C@H]4C[C@@]3(C)O2)OO1 (some centres not stated) ?
2.92 µM (inactive)

And what about the compound "CN(C)CCCNc1ccc2ncn3c4ccccc4c(=O)c1c23" ?
4.71 µM (inactive)

And what about the compound COc1ccc(COCC[C@H](C)OC2OC(CO[Si](C)(C)C(C)(C)C)C(O)C(O)C2O)cc1 (some centres not stated) ?
> 100 µM (inactive)

====

System: RPMI-8226
Assay: NCI tumour cell line growth inhibition, 48 h
Activity calls are given as the source filed them. Cut-off read from the data, not from the text of the source: active = GI50 up to about 1.1 µM and inactive = higher.
Readout kind: GI50

Before answering, review these 5 worked examples.
| Compound | Assay target | GI50 |
| --- | --- | --- |
| N#CCCC(CC#N)N1CCN(C(CC#N)CCC#N)CC1 (stereo unspecified) | RPMI-8226 | > 100 µM (inactive) |
| CN1C(=O)C23CCCC2CC1(c1ccccc1)S3 (stereo unspecified) | RPMI-8226 | > 100 µM (inactive) |
| O=C1/C(=C/c2ccc(Cl)cc2)CNC/C1=C\c1ccc(Cl)cc1 | RPMI-8226 | 0.5 µM (active) |
| CC(C)C(N)(C(=O)O)c1ccccc1 (stereo unspecified) | RPMI-8226 | > 100 µM (inactive) |
| CC1(C)OC2CN(C(=O)OCc3ccccc3)C(CO)C2O1 (stereo unspecified) | RPMI-8226 | > 100 µM (inactive) |

# value lookup — system RPMI-8226, readout GI50, item NCCNC(=O)CN(CC(=O)O)C1CCCCC1N(CC(=O)O)CC(=O)O (stereo unspecified)
> 10 µM (inactive)

And what about the compound "CC(C)OP(=O)(OC(C)C)/C(=N/Nc1ccccc1[N+](=O)[O-])NCCN/C(=N\Nc1ccccc1[N+](=O)[O-])P(=O)(OC(C)C)OC(C)C" ?
28.2 µM (inactive)

And what about the compound CC(=O)C1=C(C)N(c2ccccc2)C2(O)C=CC(O)=C3C(=O)c4ccccc4C(=O)C312 (stereo unspecified) ?
3.37 µM (inactive)

Provenance of the data: ChEMBL document CHEMBL1201862
